The values you see were collected from patent US9234000B2.

# experimental-system: plasmin (Homo sapiens (Human), UniProt P00747)
# Sequence (P00747 whole entry, looked up, change not shown): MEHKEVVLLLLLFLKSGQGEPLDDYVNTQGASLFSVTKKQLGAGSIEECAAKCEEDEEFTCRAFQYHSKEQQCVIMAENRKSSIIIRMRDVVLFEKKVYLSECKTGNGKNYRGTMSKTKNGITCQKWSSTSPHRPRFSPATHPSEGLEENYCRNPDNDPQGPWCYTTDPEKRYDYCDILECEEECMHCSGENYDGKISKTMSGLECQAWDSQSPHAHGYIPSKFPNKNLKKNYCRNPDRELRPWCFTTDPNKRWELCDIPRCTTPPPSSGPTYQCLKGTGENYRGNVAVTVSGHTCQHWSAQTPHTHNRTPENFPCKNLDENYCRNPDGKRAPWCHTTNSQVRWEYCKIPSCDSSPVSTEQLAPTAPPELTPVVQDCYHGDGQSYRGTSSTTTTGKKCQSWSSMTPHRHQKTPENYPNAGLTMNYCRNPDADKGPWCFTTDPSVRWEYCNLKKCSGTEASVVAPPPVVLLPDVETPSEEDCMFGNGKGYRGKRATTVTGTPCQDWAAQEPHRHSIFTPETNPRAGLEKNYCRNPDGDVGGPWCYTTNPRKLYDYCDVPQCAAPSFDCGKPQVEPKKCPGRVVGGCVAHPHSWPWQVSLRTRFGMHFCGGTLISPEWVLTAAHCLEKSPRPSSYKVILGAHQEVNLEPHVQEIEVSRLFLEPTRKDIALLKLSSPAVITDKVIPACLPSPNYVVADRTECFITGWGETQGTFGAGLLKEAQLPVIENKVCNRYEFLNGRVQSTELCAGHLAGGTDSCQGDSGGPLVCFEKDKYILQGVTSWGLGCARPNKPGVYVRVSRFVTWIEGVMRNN
# Sequence (P00747 whole entry partner, looked up): as the sequence (P00747 whole entry, looked up, change not shown) above
pIC50: −log10 of the molar value.

smiles-notation: CCOc1ccc(C[C@@H](NC(=O)c2ccccc2)C(=O)N[C@@H](Cc2ccccc2)C(=O)NCc2ccc(CN)cc2)cc1
pIC50: 5.46

###

# experimental-system: UniProt P06870
# Sequence (P06870 25-262): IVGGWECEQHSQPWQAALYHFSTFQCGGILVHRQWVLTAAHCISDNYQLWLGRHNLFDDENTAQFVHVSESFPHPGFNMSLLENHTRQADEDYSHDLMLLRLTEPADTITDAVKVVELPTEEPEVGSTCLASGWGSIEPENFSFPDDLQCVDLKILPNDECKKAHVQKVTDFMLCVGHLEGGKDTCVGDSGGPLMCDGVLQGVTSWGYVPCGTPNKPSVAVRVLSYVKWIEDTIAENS
# protocol-details: Determination of the IC50 for KLK1
# Assay type: biochemical
# measurement-parameters: Human KLK1, 37° C., substrate H-DVal-Leu-Arg-AFC; Table 13
pIC50: −log10 of the molar value.

smiles-notation: CCOc1ccc(C[C@@H](NC(=O)c2cccc(C(F)(F)F)c2)C(=O)N[C@@H](Cc2ccccc2)C(=O)NCc2ccc(CN)cc2)cc1
experimental-system: UniProt P06870
pIC50: < 5.00
//
smiles-notation: CCOc1ccc(C[C@@H](NC(=O)c2ccc(C)nc2)C(=O)N[C@@H](Cc2ccccc2)C(=O)NCc2ccc(CN)cc2)cc1
experimental-system: UniProt P06870
pIC50: < 5.00
//
smiles-notation: CCOc1ccc(C[C@@H](NC(=O)c2ccccc2)C(=O)N[C@@H](Cc2cccnc2)C(=O)NCc2ccc(CN)c(C)c2)cc1
experimental-system: UniProt P06870
pIC50: < 5.00
